Cited source: paper PMC10397247

# target system: T1, 4H3354-bH
# T1 chain: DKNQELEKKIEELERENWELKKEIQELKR
# test: two-hybrid library CCNG1;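 further: natural log of median RNA to DNA barcode read ratio; higher means stronger binding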
interaction score listing for selected binders.
measured metric: interaction score

INSERT INTO assay_data (binder, measured_metric, reported) VALUES
  ('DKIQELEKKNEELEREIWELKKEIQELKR [4H2442-bH]', 'interaction score', 0.0703),
  ('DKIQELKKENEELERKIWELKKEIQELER [4H2729-bH]', 'interaction score', -0.446),
  ('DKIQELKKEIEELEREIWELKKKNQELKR [4H2576-bH]', 'interaction score', -0.952);
